Please respond with reported CC50 at 48 h for every item in the list.
EXPERIMENT SUMMARY: Cytotoxicity assay (Alamar Blue), primary adult mouse brain cells
Assay type: cell-based
CONDITION LABEL: AMB cells, two independent experiments in duplicate wells, read-out: CC50 (50% cytotoxic concentration)
Numbered stars: 1 amine (or outer) side, 2 acyl side, 3 side chain; on linkers, the order of the positions; unused ones are H or OH. Bridge positions count the residues as written; N and C are the ends. Square brackets hold non-standard residues; d marks the D form. Peptide text beside a SMILES is read from it. I, II: the chains in the order shown. Actinocin(1to9) = Cc1c2oc3c(C)ccc(C(=O)[*:2])c3nc-2c(C(=O)[*:1])c(N)c1=O; Actinocin(9to1) = Cc1c2oc3c(C)ccc(C(=O)[*:1])c3nc-2c(C(=O)[*:2])c(N)c1=O; Pro(4-oxo) = O=C1CN[C@H](C(=O)O)C1; NMeV = CN[C@H](C(=O)O)C(C)C; Sar = CNCC(=O)O
Numbers only, in nM.

Cc1c2oc3c(C)ccc(C(=O)N[C@@H]4C(=O)N[C@H](C(C)C)C(=O)N5CCC[C@H]5C(=O)N(C)CC(=O)N(C)[C@@H](C(C)C)C(=O)O[C@@H]4C)c3nc-2c(C(=O)N[C@@H]2C(=O)N[C@H](C(C)C)C(=O)N3CCC[C@H]3C(=O)N(C)CC(=O)N(C)[C@@H](C(C)C)C(=O)O[C@@H]2C)c(N)c1=O [actinomycin D] (I: T[dV]P[Sar][NMeV] / II: T[dV]P[Sar][NMeV]; ester I:1-I:C, II:1-II:C; linker I:N-II:N via Actinocin(9to1)) ... 6.71

The compound listed as Cc1c2oc3c(C)ccc(C(=O)N[C@@H]4C(=O)N[C@H](C(C)C)C(=O)N5CCC[C@H]5C(=O)N(C)CC(=O)N(C)[C@@H](C(C)C)C(=O)O[C@@H]4C)c3nc-2c(C(=O)N[C@@H]2C(=O)N[C@H](C(C)C)C(=O)N3CC(=O)C[C@H]3C(=O)N(C)CC(=O)N(C)[C@@H](C(C)C)C(=O)O[C@@H]2C)c(N)c1=O [actinomycin X2] (I: T[dV][Pro(4-oxo)][Sar][NMeV] / II: T[dV]P[Sar][NMeV]; ester I:1-I:C, II:1-II:C; linker I:N-II:N via Actinocin(1to9)) shows CC50 at 48 h equal to 6.71
